Cited source for all entries: patent US8058276B2

Observable: melting point

Worked examples follow.
• O=C(Nc1ccc(F)c(C(F)(F)F)c1)c1csc2cc(Oc3cc(CO)ncn3)ccc12 = 138 to 140 °C
• O=C(Nc1cccc(C(F)(F)F)c1)c1coc2cc(Oc3cc(CO)ncn3)ccc12 = 181 to 182 °C
• CN1CCN(Cc2ccc(NC(=O)c3nsc4cc(Oc5ccnc(N)n5)ccc34)cc2C(F)(F)F)CC1 = 215 to 217 °C
• Nc1nccc(Oc2ccc3c(C(=O)Nc4cccc(C(F)(F)F)c4)cnn3c2)n1 = 102 to 104 °C

// moving on: another record for melting point
Problem: Which melting point reading was recorded for the compound Nc1nccc(Oc2ccc3c(C(=O)Nc4ccc(F)c(C(F)(F)F)c4)nsc3c2)n1 ?
Result: 237 to 239 °C
